Value source: ChEMBL document CHEMBL3763012

biological target: Sphingosine kinase 1 (Homo sapiens); test: Inhibition of SK1 (unknown origin)
Sequence (Q9NYA1 whole entry): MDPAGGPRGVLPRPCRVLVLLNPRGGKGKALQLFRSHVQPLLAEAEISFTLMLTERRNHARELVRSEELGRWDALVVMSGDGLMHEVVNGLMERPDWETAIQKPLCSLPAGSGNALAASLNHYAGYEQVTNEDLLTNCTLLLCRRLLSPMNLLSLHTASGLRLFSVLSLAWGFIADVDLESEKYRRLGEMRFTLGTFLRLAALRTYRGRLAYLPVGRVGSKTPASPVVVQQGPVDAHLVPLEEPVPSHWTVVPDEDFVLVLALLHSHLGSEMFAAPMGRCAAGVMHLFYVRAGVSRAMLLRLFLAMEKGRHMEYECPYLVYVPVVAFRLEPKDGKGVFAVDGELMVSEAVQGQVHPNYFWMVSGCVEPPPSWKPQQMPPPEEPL
measurement_label: IC50

Name the reported IC50 value associated with the compound `OC[C@H]1C[C@H](O)CN1CCCc1ccc(Nc2nc(-c3cccc(C(F)(F)F)c3)cs2)cc1`
20 nM

----------
target: Sphingosine kinase 2 (Homo sapiens); assay: Inhibition of SK2 (unknown origin)
Sequence (Q9NRA0 whole entry): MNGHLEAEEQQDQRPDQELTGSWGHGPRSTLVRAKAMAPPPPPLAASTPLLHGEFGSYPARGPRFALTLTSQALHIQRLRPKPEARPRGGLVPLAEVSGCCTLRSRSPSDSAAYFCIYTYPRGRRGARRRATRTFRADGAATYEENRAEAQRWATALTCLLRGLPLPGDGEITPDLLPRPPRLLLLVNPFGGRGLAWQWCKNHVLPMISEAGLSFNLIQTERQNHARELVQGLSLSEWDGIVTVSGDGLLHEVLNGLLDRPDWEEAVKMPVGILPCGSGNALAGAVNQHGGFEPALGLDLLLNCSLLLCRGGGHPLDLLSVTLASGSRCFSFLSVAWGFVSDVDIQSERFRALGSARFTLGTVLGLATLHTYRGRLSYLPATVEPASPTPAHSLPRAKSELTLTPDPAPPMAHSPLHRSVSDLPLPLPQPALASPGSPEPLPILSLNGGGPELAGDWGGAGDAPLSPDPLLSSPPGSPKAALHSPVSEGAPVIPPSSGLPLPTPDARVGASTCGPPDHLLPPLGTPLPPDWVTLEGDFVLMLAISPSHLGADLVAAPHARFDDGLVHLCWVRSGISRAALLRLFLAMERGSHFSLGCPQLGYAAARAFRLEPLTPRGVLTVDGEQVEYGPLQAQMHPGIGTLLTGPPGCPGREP
measurement_label: pIC50
Worth noting: pIC50 values are minus log10 of concentrations stated in mol/L.

Name the reported pIC50 value associated with the compound `OC[C@H]1C[C@H](O)CN1CCCc1ccc(Nc2nc(-c3cccc(C(F)(F)F)c3)cs2)cc1`
6.83

----------
target: Sphingosine kinase 2 (Homo sapiens); experiment: Inhibition of recombinant human SK2 assessed as production of [32P] S1P using 10 uM sphingosine as substrate by TLC method in presence of 1 mM [gamma32P]-ATP relative to control
measurement_label: pIC50
Worth noting: pIC50 values are minus log10 of concentrations stated in mol/L.

Name the reported pIC50 value associated with the compound `Clc1ccc(-c2nnc(NCc3ccncc3)o2)cc1`
5.26
